All figures here come from patent US8420673B2.

# Tested on: Phytophthora infestans
# Format: in vivo
# condition set: tomato seedlings, sprayed to run-off 17 h after inoculation; no asterisk, test concentration not given
Could you please report measured Test C rating (disease control) for the items listed next?
Numbers only, in %.

// solved cases for Test C rating (disease control) follow
{"compound": "Cc1cc(C(F)(F)F)nn1CC(=O)N1CCC(c2nc(CN(C)[C@@H]3CCCc4ccccc43)cs2)CC1 [Compound 1]", "assay target": "Phytophthora infestans", "Test C rating (disease control), %": 99}
{"compound": "Cc1cc(C(F)(F)F)nn1CC(=O)N1CCC(c2nc(CN[C@@H]3CCCc4ccccc43)cs2)CC1 [Compound 2]", "assay target": "Phytophthora infestans", "Test C rating (disease control), %": 93}
{"compound": "CC(=O)N(Cc1csc(C2CCN(C(=O)Cn3nc(C(F)(F)F)cc3C)CC2)n1)[C@@H]1CCCc2ccccc21 [Compound 3]", "assay target": "Phytophthora infestans", "Test C rating (disease control), %": 53}

Next item in the queue.
QUERY: Return Test C rating (disease control) (reported value) for this compound: Cc1cc(C(F)(F)F)nn1CC(=O)N1CCC(c2nc(CN(C=O)[C@@H]3CCCc4ccccc43)cs2)CC1 [Compound 4]
RESULT: 26
